B1: mRNA-splicing (parent)
chain: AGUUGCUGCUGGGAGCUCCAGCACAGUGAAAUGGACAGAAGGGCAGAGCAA

- Variants of: B1
- test: exon inclusion enrichment index; higher = more inclusion; WT1 exon 5 minigene, HEK293

sequence-chain | exon inclusion enrichment index
AGUUGACGACGGGAGCUCCAGCACAUAGAAAUGGACAGAAGGGCAGAGCAA | 2.38
AGUUCGCGCCGGGAGCUCCAGCACAGUGAAGGGGACAGAAGGGCAGAGCAA | 2.67
AGUUCGCGCCGGGAGCUCCAGCUAAGUGAAAUGGACAGAAGGGCAGAGCAA | 2.3
AGUUUCUUUUGGGAGCUCCAGCACACAGAAAUGGACAGAAGGGCAGAGCAA | 0.135
AGUUUCUUUUGGGAGCUCCAGCACAGUGAACAGGACAGAAGGGCAGAGCAA | 0.077
AGUUAGGGAUGGGAGCUCCAGCACAGUGAAAUGGACAUGAGGGCAGAGCAA | 0.00105
AGUUUCUUUUGGGAGCUCCAGCACAGUGAAACUGACAGAAGGGCAGAGCAA | 0.0499
AGUUUCUUUUGGGAGCUCCAGCAUCGUGAAAUGGACAGAAGGGCAGAGCAA | 0.987
AGUUGACGACGGGAGCUCCAGCACAGUGAAAUGGACAGAAGGGCACCGCAA | 2.51
AGUUAGGGAUGGGAGCUCCAGCACAGUGAACGGGACAGAAGGGCAGAGCAA | 0.00133
AGUUCACACAGGGAGCUCCAGCACAGUGAAAUGGACACGAGGGCAGAGCAA | 0.111
AGUUCACACAGGGAGCUCCAGCACAUUGAAAUGGACAGAAGGGCAGAGCAA | 0.091
AGUUGCUGCUGGGAGCUCCAGCACAACGAAAUGGACAGAAGGGCAGAGCAA | 0.0175
AGUUGACGACGGGAGCUCCAGCCUAGUGAAAUGGACAGAAGGGCAGAGCAA | 2.26
AGUUCGCGCCGGGAGCUCCAGCACAGUAUAAUGGACAGAAGGGCAGAGCAA | 1.28
AGUUGCUGCUGGGAGCUCCAGCACAGUGAAAUGGACAGAAGGGAUGAGCAA | 0.469
AGUUCUUCUCGGGAGCUCCAGCACAGAUAAAUGGACAGAAGGGCAGAGCAA | 0.824
AGUUCGCGCCGGGAGCUCAUGCACAGUGAAAUGGACAGAAGGGCAGAGCAA | 1.52
AGUUCGCGCCGGGAGCUCCAGCACAGUGAAAUCAACAGAAGGGCAGAGCAA | 2.48
